- ASSAYED SYSTEM: MMP1 (Homo sapiens)
- Sequence (P03956 100-269 limits assumed): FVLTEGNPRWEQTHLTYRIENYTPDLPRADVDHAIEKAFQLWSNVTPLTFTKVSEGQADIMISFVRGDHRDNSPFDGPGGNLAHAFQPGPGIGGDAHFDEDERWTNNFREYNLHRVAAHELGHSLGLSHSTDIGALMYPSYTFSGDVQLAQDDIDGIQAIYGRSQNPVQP
- PROTOCOL NOTES: MMP-1 colorimetric inhibition assay (Enzo kit BML-AK404)
- Type: biochemical
pIC50: −log10 of the molar value.
OUTCOME MEASURE: pIC50

O=C(NO)[C@H]1[C@@H]2CC[C@H](CN1S(=O)(=O)c1ccc(Oc3ccc(OCC(F)(F)F)cc3)nc1)N2C(=O)N1CCOCC1; 5.00 to 6.00
COCCOC(=O)N1[C@@H]2CC[C@H]1[C@H](C(=O)NO)N(S(=O)(=O)c1ccc(OC3CCC(OC)CC3)nc1)C2 (stereo partly shown); 5.00 to 6.00
COCCOC(=O)N1[C@@H]2CC[C@H]1[C@H](C(=O)NO)N(S(=O)(=O)N1CCC(Oc3ccc(F)cc3)C1)C2 (stereo partly shown); < 5.00

Recorded pIC50 for COCCOC(=O)N1[C@@H]2CC[C@H]1[C@H](C(=O)NO)N(S(=O)(=O)N1CCC(Oc3ccc(Cl)cc3)C1)C2 (stereo partly shown) , please? < 5.00
